Source: ChEMBL document CHEMBL4177696

Exercise: state measured MIC for each of the molecules provided.
# Test system: Staphylococcus aureus
# PROTOCOL_TEXT: Antibacterial activity against Staphylococcus aureus measured after 24 hrs
# Format: functional
Answers are plain numbers, in µg/mL.

{"MOLECULE": "COc1c(C(C)C)ccc2c1CC[C@H]1[C@@H](O)CCC[C@]21C", "TARGET_OR_SYSTEM": "Staphylococcus aureus", "MIC / µg/mL": 100}
{"MOLECULE": "COc1c(C(C)C)ccc2c1CC[C@H]1C3=C(CC[C@]21C)C(=O)OC3", "TARGET_OR_SYSTEM": "Staphylococcus aureus", "MIC / µg/mL": 100}

Indicate the recorded MIC value for this molecule: COC(=O)[C@]1(C)CCC[C@]2(C)c3ccc(C(C)C)cc3CC[C@@H]12 [METHYL DEHYDROABIETATE]
75
